# assay overview: sensitizers of A549 cells to miR-34 induction, primary screen, imaging, A549 dox-inducible miR-34, nuclei and caspase counts (AID 1347080)
# assay context: A549 miR-34 inducible, Hoechst nuclei count, 48 h; stronger effect = lower value; cell number ratio, induced over uninduced
property name: fold change

compound="CCN(CCO)CCCC(C)Nc1ccnc2cc(Cl)ccc12 (stereo unspecified)" numeric_readout=0.835
compound=O[C@@H](c1cc(C(F)(F)F)nc2c(C(F)(F)F)cccc12)[C@H]1CCCCN1 numeric_readout=1.59
compound=CN(C)c1cc2c(Nc3ccc4c(cnn4Cc4ccccc4)c3)ncnc2cn1 numeric_readout=1.64
compound=CC1=C(C(=O)O)N2C(=O)[C@@H](NC(=O)[C@H](N)c3ccccc3)[C@H]2SC1 numeric_readout=0.846
compound=Fc1ccc(-c2nc3n(c2-c2ccncc2)CCS3)cc1 numeric_readout=0.866
compound=C[C@]12CCC(=O)C=C1CC[C@@H]1[C@@H]2[C@@H](O)C[C@@]2(C)[C@H]1CC[C@]2(O)C(=O)COC(=O)CCC(=O)O numeric_readout=0.985
compound=CC[C@]1(O)C[C@@H]2CN(CCc3c([nH]c4ccccc34)[C@@](C(=O)OC)(c3cc4c(cc3OC)N(C)[C@H]3[C@@](O)(C(=O)OC)[C@H](OC(C)=O)[C@]5(CC)C=CCN6CC[C@]43[C@@H]65)C2)C1 numeric_readout=1.08
compound=C[C@@H]1CC(=O)NN=C1c1ccc(NN=C(C#N)C#N)cc1 numeric_readout=0.967
compound=CC1(C)O[C@@H]2C[C@H]3[C@@H]4CCC5=CC(=O)C=C[C@]5(C)[C@@]4(F)[C@@H](O)C[C@]3(C)[C@]2(C(=O)CO)O1 numeric_readout=0.992
compound=C=CCCCCCCCCC(=O)O numeric_readout=0.879
compound=CCCCCCCCCCC[C@@H](C[C@@H]1OC(=O)[C@H]1CCCCCC)OC(=O)[C@H](CC(C)C)NC=O numeric_readout=0.867
compound=O=C1NC(=O)C(c2c[nH]c3ccccc23)=C1c1c[nH]c2ccccc12 numeric_readout=1.26
compound=CN1C(=O)C(c2c[nH]c3ccccc23)=C(c2c[nH]c3ccccc23)C1=O numeric_readout=0.868
compound=COc1cc2ncn(-c3cc(OCc4ccccc4C(F)(F)F)c(C(N)=O)s3)c2cc1OC numeric_readout=1.05
compound="CC(C)C1CCC(C(=O)N[C@H](Cc2ccccc2)C(=O)O)CC1 (stereo partly specified)" numeric_readout=0.871
compound=N#Cc1c(NC(=O)c2ccccc2F)sc2c1CCCC2 numeric_readout=0.993

###

# tested on: Cellular tumor antigen p53 (Homo sapiens)
# assay overview: kinase inhibitors altering GFP-p53 stability in HPV16-positive cells, imaging, known kinase inhibitor set, EGFP/DsRed ratio (AID 1053116);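 further: cells exposed to compounds for 24 h at 37 °C before reading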
# assay context: stronger effect = higher value; measured here: GFP-p53 positive objects count
property name: EGFP object count

smiles_data=NCc1ccc(-n2c(-c3nonc3N)nc3cnccc32)cc1 tested_on="Cellular tumor antigen p53 (Homo sapiens)" numeric_readout=1
smiles_data=O=C1NC(=NCCc2ccc(Cl)cc2)SC1=Cc1ccc2ncccc2c1 tested_on="Cellular tumor antigen p53 (Homo sapiens)" numeric_readout=6.5
smiles_data=Cc1nnc(-c2ccc(C)c(-c3ccc(C(=O)NCc4ccc(Cl)cc4)cc3)c2)o1 tested_on="Cellular tumor antigen p53 (Homo sapiens)" numeric_readout=2
smiles_data=COc1ccc(C2=C(c3cn(C)c4ccccc34)C(=O)NC2=O)cc1OC tested_on="Cellular tumor antigen p53 (Homo sapiens)" numeric_readout=13

###

# Tested on: F380Y
# assay overview: modulators of BK channel variants, profiling panel, selectivity assay, cell-based, U2OS BacMam, thallium flux, beta subunits (AID 1259406);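 further: initial slope of Thallos dye fluorescence rise after thallium is added; log ratio against the mean of 0.3% DMSO vehicle wells on the same plate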
# assay context: at 30 µM
Calls of active or inactive are those of the source.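 Rule for the calls: active = thallium flux through the channel raised or lowered by more than 3 SD from vehicle-only wells, actives on both sides; inactive = the rest.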
Classes used: active, inactive

compound=COc1ccc2cc(CCC(C)=O)ccc2c1 tested_on=F380Y discrete_label=active
compound=CN(C)c1ccc(O)c2c1C[C@H]1C[C@H]3[C@H](N(C)C)C(=O)C(C(N)=O)=C(O)[C@@]3(O)C(=O)C1=C2O tested_on=F380Y discrete_label=inactive
compound=NS(=O)(=O)c1cc2c(cc1C(F)(F)F)NCNS2(=O)=O tested_on=F380Y discrete_label=inactive
compound=CCCCNC(=O)NS(=O)(=O)c1ccc(C)cc1 tested_on=F380Y discrete_label=inactive
compound="CC(C)Cc1ccc(C(C)C(=O)O)cc1 (configuration not stated)" tested_on=F380Y discrete_label=inactive
compound=C[C@H](CS)C(=O)N1CCC[C@H]1C(=O)O tested_on=F380Y discrete_label=inactive
compound=O=C1NC(=O)C(c2ccccc2)(c2ccccc2)N1 tested_on=F380Y discrete_label=inactive

###

# assay overview: decreased DLD-1 cellular survival, CellTiter-Glo luminescent readout, NPC compound collection, primary HTS (AID 1117346)
# assay context: DLD-1 viability, CellTiter-Glo luminescence; at 20 µM (top of the series)
Overview of recorded viability decrease (inhibition) for various molecules
property name: viability decrease (inhibition) (%)

molecule=CCN(CC)c1ccc(C(=C2C=CC(=[N+](CC)CC)C=C2)c2cc(S(=O)(=O)O)ccc2S(=O)(=O)[O-])cc1 property_name="viability decrease (inhibition)" numeric_readout=13
molecule=C=CCNc1nc(NCC=C)nc(N2CCN(C(c3ccc(F)cc3)c3ccc(F)cc3)CC2)n1 property_name="viability decrease (inhibition)" numeric_readout=49.4
molecule=O=C(N/N=C/c1ccccc1O)c1ccncc1 property_name="viability decrease (inhibition)" numeric_readout=57.8
molecule=NC[C@H]1O[C@H](O[C@H]2[C@@H](O)[C@@H](O[C@H]3O[C@H](CO)[C@@H](O)[C@H](N)[C@@H]3O)[C@H](N)C[C@@H]2N)[C@H](N)C[C@H]1O property_name="viability decrease (inhibition)" numeric_readout=-15.9
molecule=Cc1coc2ccccc2c1=O property_name="viability decrease (inhibition)" numeric_readout=-7.5
molecule=COC(=O)[C@H]1[C@H]2C[C@@H]3c4[nH]c5cc(OC)ccc5c4CCN3C[C@H]2C[C@@H](OC(=O)COc2ccc(OC)cc2)[C@@H]1OC property_name="viability decrease (inhibition)" numeric_readout=1.9
molecule="CCC(C(=O)OCCN1CCOC(c2ccccc2)C1C)c1ccccc1 (centres undefined)" property_name="viability decrease (inhibition)" numeric_readout=22.2
molecule=CCCN1C[C@H](CSC)C[C@@H]2c3cccc4[nH]cc(c34)C[C@H]21 property_name="viability decrease (inhibition)" numeric_readout=7.8
molecule=COc1cc(NS(=O)(=O)c2ccc(N)cc2)nc(C)n1 property_name="viability decrease (inhibition)" numeric_readout=6.1

###

# assay overview: CellTiter-Glo luminescent readout of SW480 viability loss, NPC library primary (AID 1117343)
# assay context: CellTiter-Glo luminescence; at 20 µM (top of the series)
Calls of active or inactive are those of the source.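 How the source made its calls: active means compounds that lower viability of the colon cancer cells in the luminescence readout, with no numeric limit stated; inactive means the rest.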
property name: viability decrease (inhibition)

compound=CCN1/C(=C/C=C/c2sc3ccccc3[n+]2CC)Sc2ccccc21 property_name="viability decrease (inhibition)" result="103% (active)"
compound=CN[C@H]1CC[C@@H](c2ccc(Cl)c(Cl)c2)c2ccccc21 property_name="viability decrease (inhibition)" result="120% (active)"
compound=CCOC(=O)N1CCC(=C2c3ccc(Cl)cc3CCc3cccnc32)CC1 property_name="viability decrease (inhibition)" result="94% (active)"
compound=NNCCc1ccccc1 property_name="viability decrease (inhibition)" result="-14.5% (inactive)"
compound=Cc1ccc2ccc(Cl)cc2n1 property_name="viability decrease (inhibition)" result="1.2% (inactive)"
compound=CC(C)C[C@@H](N)C(=O)O property_name="viability decrease (inhibition)" result="3.6% (inactive)"
compound="Cc1c(OCC(F)(F)F)ccnc1CS(=O)c1nc2ccccc2[nH]1 (stereo not drawn)" property_name="viability decrease (inhibition)" result="13.2% (inactive)"
compound="CCN(CC)CCCC(C)Nc1ccnc2cc(Cl)ccc12 (stereo not drawn)" property_name="viability decrease (inhibition)" result="31.4% (inactive)"
compound="COc1cc(C(=O)OC(COCCC(C)C)CN2CCOCC2)cc(OC)c1OC (stereo not drawn)" property_name="viability decrease (inhibition)" result="39.2% (inactive)"
compound=O=C1C(c2[nH]c3ccc(S(=O)(=O)O)cc3c2O)=Nc2ccc(S(=O)(=O)O)cc21 property_name="viability decrease (inhibition)" result="13.9% (inactive)"
compound=c1ccc(CCNc2nc(-c3ccccc3)cs2)cc1 property_name="viability decrease (inhibition)" result="35.5% (inactive)"
compound="CC12CCC(C[N+](C)(CCC[N+](C)(C)C)C1)C2(C)C (stereo not drawn)" property_name="viability decrease (inhibition)" result="7.3% (inactive)"
compound=C[C@@H]1C[C@H]2[C@@H]3CCC4=CC(=O)C=C[C@]4(C)[C@@]3(F)[C@@H](O)C[C@]2(C)[C@@]1(O)C(=O)COC(=O)c1ccncc1 property_name="viability decrease (inhibition)" result="5.8% (inactive)"
compound="CCCCCCCCCCCC(=O)OCC(O)CO (stereo not drawn)" property_name="viability decrease (inhibition)" result="44.7% (inactive)"
compound="CN(C)CCOC(C)(c1ccccc1)c1ccccn1 (stereo not drawn)" property_name="viability decrease (inhibition)" result="28.1% (inactive)"
compound="CCc1ccc(C(=O)C(C)CN2CCCCC2)cc1 (stereo not drawn)" property_name="viability decrease (inhibition)" result="7.4% (inactive)"
compound=Oc1ccc(CCNCCCCCCNCCc2ccccc2)cc1O property_name="viability decrease (inhibition)" result="99.5% (active)"
compound="O=C1NC2CCCCN2C12CCN(CCCN1c3ccccc3CCc3ccc(Cl)cc31)CC2 (stereo not drawn)" property_name="viability decrease (inhibition)" result="128% (active)"
compound="CCCCCCCC(=O)OCC(O)CO (stereo not drawn)" property_name="viability decrease (inhibition)" result="16.9% (inactive)"
compound=CCc1oc2ccccc2c1C(=O)c1cc(I)c(O)c(I)c1 property_name="viability decrease (inhibition)" result="101% (active)"
compound="COc1cc2c(cc1OC)C(C(C(=O)N(CCc1ccc(OC)c(OC)c1OC)CCc1ccc(OC)c(OC)c1OC)c1ccccc1)=NCC2 (stereo not drawn)" property_name="viability decrease (inhibition)" result="87.9% (active)"
compound=CO/N=C(/C(=O)N[C@@H]1C(=O)N2C(C(=O)OCOC(=O)C(C)(C)C)=C(C)CS[C@H]12)c1csc(N)n1 property_name="viability decrease (inhibition)" result="15% (inactive)"
compound=O=C(O)/C=C\C(=O)O property_name="viability decrease (inhibition)" result="33.2% (inactive)"

From: PubChem BioAssay
